# tested on: Tyrosine-protein kinase Fgr (Homo sapiens);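 also: value reported as mean kinase inhibition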
# experimental context: at 1 µM
readout name: inhibition (%)
Respond with the bare value in %.

Reference set (3 entries):
| smiles string | tested on | endpoint result |
| --- | --- | --- |
| CCn1c(-c2nonc2N)nc2c(C#CCN)ncc(OCCCN)c21 | Tyrosine-protein kinase Fgr (Homo sapiens) | 1.7 |
| NS(=O)(=O)c1ccc(N/C=C2\C(=O)Nc3ccc4ncsc4c32)cc1 | Tyrosine-protein kinase Fgr (Homo sapiens) | 21.6 |
| NS(=O)(=O)c1ccc(-c2ccc3c(NC(=O)C4CC4)n[nH]c3c2)cc1 | Tyrosine-protein kinase Fgr (Homo sapiens) | 6.23 |

Qu. Any idea what inhibition was measured for "COc1cccc(COc2cc(-n3cnc4ccccc43)sc2C(N)=O)c1" ?
Ans. 1.54

Qu. Which inhibition value is on record for "Nc1nonc1-c1nc2cnccc2n1C1CCCCC1" ?
Ans. 6.63

Qu. Which inhibition value belongs to "NC(=O)c1sc(-n2cnc3cc(C(F)(F)F)ccc32)cc1OCc1ccccc1Br" ?
Ans. 2.99

Qu. Recorded inhibition for "Fc1ccc(-c2ncn(C3CCNCC3)c2-c2ccnc(Oc3ccccc3)n2)cc1" , please?
Ans. 4.87

Qu. If you can, please state the reported inhibition value of "Cc1cc(-c2ccco2)cc(C)c1/C=C/c1cncc(-c2nn[nH]n2)c1" .
Ans. 6.29

Qu. Which inhibition is listed for "CCn1c(-c2nonc2N)nc2c(C#CC(C)(C)O)ncc(OCC3CCNCC3)c21" ?
Ans. 4.9

---

# maps each entry to its inhibition
# tested on: Protein kinase C theta type (Homo sapiens);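 also: each value is a mean inhibition of PKC-theta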
# experimental context: at 1 µM
// return numeric value only (unit: %, not printed)

| smiles string | tested on | readout name | endpoint result |
| --- | --- | --- | --- |
| CCn1c(-c2nonc2N)nc2c(C#CCN)ncc(OCCCN)c21 | Protein kinase C theta type (Homo sapiens) | inhibition | 38.6 |

Qu. Can you look up inhibition on Protein kinase C theta type (Homo sapiens) for "COc1cc(C=NNc2ncnc3c2cnn3Cc2ccccc2)ccc1O" ?
Ans. 1.99

Qu. Protein kinase C theta type (Homo sapiens) / inhibition / "Nc1nonc1-c1nc2cnccc2n1C1CCCCC1" : value?
Ans. 55.2

Qu. Hello, I am looking for reported inhibition with Protein kinase C theta type (Homo sapiens) for "CCn1c(-c2nonc2N)nc2c(C#CC(C)(C)O)nc(O[C@@H](CN)c3ccccc3)cc21" . Could you help?
Ans. 84.8

Qu. Quick check: inhibition on Protein kinase C theta type (Homo sapiens), item "Fc1ccc(-c2ncn(C3CCNCC3)c2-c2ccnc(Oc3ccccc3)n2)cc1" ?
Ans. 1.59

Qu. Reported inhibition for Protein kinase C theta type (Homo sapiens), given "NS(=O)(=O)c1ccc(N/C=C2\C(=O)Nc3ccc4ncsc4c32)cc1" ?
Ans. 6.57

Qu. Reported inhibition for Protein kinase C theta type (Homo sapiens), given "NS(=O)(=O)c1ccc(-c2ccc3c(NC(=O)C4CC4)n[nH]c3c2)cc1" ?
Ans. -0.43

---

# Test system: Epidermal growth factor receptor (Homo sapiens), P00533 [T790M]
# Sequence (P00533 whole entry T790M): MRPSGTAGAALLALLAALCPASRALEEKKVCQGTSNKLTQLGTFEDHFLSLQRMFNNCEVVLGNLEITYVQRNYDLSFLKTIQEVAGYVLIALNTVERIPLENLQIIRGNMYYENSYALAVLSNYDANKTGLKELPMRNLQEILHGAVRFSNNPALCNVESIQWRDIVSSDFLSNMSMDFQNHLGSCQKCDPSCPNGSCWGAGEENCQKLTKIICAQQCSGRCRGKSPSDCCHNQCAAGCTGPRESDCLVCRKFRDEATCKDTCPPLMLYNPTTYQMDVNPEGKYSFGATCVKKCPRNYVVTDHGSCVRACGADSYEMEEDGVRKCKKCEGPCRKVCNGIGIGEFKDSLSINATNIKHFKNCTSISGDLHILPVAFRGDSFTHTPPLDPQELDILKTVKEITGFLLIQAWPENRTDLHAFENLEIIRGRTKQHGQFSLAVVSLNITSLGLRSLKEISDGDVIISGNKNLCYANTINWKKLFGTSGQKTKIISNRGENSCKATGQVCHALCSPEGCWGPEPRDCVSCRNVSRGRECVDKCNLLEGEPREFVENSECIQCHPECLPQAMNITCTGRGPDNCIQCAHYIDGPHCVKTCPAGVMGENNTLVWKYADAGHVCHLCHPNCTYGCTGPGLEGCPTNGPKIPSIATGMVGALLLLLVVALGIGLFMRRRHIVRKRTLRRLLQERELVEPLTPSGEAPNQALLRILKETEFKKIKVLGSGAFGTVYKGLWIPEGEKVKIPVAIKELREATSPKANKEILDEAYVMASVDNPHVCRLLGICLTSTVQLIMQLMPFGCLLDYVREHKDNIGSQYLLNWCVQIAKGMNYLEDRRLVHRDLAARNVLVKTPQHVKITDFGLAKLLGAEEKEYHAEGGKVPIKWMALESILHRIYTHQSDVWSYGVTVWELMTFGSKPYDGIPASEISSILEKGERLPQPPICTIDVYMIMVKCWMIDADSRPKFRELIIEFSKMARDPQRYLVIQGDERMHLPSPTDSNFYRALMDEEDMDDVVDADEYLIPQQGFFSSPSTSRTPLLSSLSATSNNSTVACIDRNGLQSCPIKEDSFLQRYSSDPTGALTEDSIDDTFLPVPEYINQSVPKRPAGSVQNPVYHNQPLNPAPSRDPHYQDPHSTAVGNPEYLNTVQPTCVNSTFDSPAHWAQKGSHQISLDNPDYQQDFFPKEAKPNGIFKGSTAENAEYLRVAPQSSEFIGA
# experimental context: at 0.1 µM
readout name: inhibition
Entry format: amount then unit.

# example entries with known answers
| smiles string | inhibition |
| --- | --- |
| Fc1ccc(-c2ncn(C3CCNCC3)c2-c2ccnc(Oc3ccccc3)n2)cc1 | 0.12% |
| NS(=O)(=O)c1ccc(N/C=C2\C(=O)Nc3ccc4ncsc4c32)cc1 | 0.93% |
| COc1cccc(COc2cc(-n3cnc4ccccc43)sc2C(N)=O)c1 | -1.14% |
| CCn1c(-c2nonc2N)nc2c(C#CC(C)(C)O)nc(O[C@@H](CN)c3ccccc3)cc21 | -1.47% |

Qu. Reported inhibition for Epidermal growth factor receptor (Homo sapiens), P00533 [T790M], given "Cc1cc(-c2ccco2)cc(C)c1/C=C/c1cncc(-c2nn[nH]n2)c1" ?
Ans. 1.06%

Qu. Value wanted: inhibition (Epidermal growth factor receptor (Homo sapiens), P00533 [T790M]) of entry "COc1cc(C=NNc2ncnc3c2cnn3Cc2ccccc2)ccc1O"
Ans. -3.01%

Qu. Which inhibition is reported with Epidermal growth factor receptor (Homo sapiens), P00533 [T790M] for this entry: "NC(=O)c1sc(-n2cnc3cc(C(F)(F)F)ccc32)cc1OCc1ccccc1Br" ?
Ans. 0.21%

Qu. Lab request: please report inhibition under test system Epidermal growth factor receptor (Homo sapiens), P00533 [T790M] for "COc1cccc(-n2ncc3c(N/N=C/c4ccncc4)ncnc32)c1"
Ans. 2.99%

---

# tested on: Maternal embryonic leucine zipper kinase (Homo sapiens) (UniProt Q14680);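 also: each value is the mean inhibition of MELK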
# Sequence (Q14680 whole entry, looked up): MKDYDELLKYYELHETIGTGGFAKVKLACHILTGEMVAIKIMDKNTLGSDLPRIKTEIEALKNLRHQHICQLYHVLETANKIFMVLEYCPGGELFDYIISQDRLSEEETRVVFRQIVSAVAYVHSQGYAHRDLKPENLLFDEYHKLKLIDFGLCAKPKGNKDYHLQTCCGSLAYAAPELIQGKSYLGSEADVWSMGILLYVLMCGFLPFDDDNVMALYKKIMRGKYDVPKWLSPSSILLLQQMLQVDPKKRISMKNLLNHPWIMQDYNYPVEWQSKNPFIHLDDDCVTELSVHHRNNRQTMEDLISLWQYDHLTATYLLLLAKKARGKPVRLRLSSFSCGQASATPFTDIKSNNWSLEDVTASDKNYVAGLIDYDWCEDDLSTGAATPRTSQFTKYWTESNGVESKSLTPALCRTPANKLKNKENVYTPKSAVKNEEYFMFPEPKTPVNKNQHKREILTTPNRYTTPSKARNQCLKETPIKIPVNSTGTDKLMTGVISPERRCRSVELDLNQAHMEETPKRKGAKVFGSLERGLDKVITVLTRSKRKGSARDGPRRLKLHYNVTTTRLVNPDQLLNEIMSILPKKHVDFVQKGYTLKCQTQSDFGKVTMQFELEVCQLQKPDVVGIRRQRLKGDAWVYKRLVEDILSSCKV
# experimental context: at 1 µM
# cutoff 4% applies to inhibition; >= gives 1 (yes), < gives 0 (no)

Use the examples below as a reference point.
| smiles string | label value |
| --- | --- |
| NS(=O)(=O)c1ccc(-c2ccc3c(NC(=O)C4CC4)n[nH]c3c2)cc1 | 0 (no) |
| CCn1c(-c2nonc2N)nc2c(C#CC(C)(C)O)nc(O[C@@H](CN)c3ccccc3)cc21 | 1 (yes) |
| COc1cc2c(cc1Nc1nc(Nc3ccsc3C(N)=O)c3cc[nH]c3n1)N(C(=O)CN(C)C)CCC2 | 1 (yes) |
| Fc1ccc(-c2ncn(C3CCNCC3)c2-c2ccnc(Oc3ccccc3)n2)cc1 | 1 (yes) |

// switching to the query molecule
Qu. Textbook exercise: given the entry "Cc1cc(-c2ccco2)cc(C)c1/C=C/c1cncc(-c2nn[nH]n2)c1" , state whether its inhibition is greater than or equal to 4%.
Ans. 0 (no)

---

# tested on: Casein kinase I isoform gamma-1 (Homo sapiens);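 also: reported value is the mean inhibition of CK1 gamma-1 kinase activity across replicate measurements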
# experimental context: at 1 µM
Below, each of the molecules is paired with its reported inhibition value.
Please respond with the number in % and leave the unit unwritten.

| smiles string | result unit | inhibition |
| --- | --- | --- |
| CCn1c(-c2nonc2N)nc2c(C#CC(C)(C)O)ncc(OC[C@@H]3CCCN3)c21 | % | 2.69 |
| CCn1c(-c2nonc2N)nc2c(C#CCN)ncc(OCCCN)c21 | % | -2.61 |
| COc1cccc(-n2ncc3c(N/N=C/c4ccncc4)ncnc32)c1 | % | 7.48 |

Qu. What value of measured inhibition is listed for "Cc1cc(-c2ccco2)cc(C)c1/C=C/c1cncc(-c2nn[nH]n2)c1" ?
Ans. 1.56

---

Item-by-item account of inhibition
# Test system: Tyrosine-protein kinase ABL1 (Homo sapiens), P00519 [M351T]
# experimental context: at 1 µM
// return numeric value only (unit: %, not printed)

Guide cases for inhibition, answers given:
| smiles string | inhibition, % |
| --- | --- |
| Nc1nonc1-c1nc2cnccc2n1C1CCCCC1 | 3.69 |
| COc1cc(C=NNc2ncnc3c2cnn3Cc2ccccc2)ccc1O | 89.2 |
| Fc1ccc(-c2ncn(C3CCNCC3)c2-c2ccnc(Oc3ccccc3)n2)cc1 | -0.15 |
| NS(=O)(=O)c1ccc(N/C=C2\C(=O)Nc3ccc4ncsc4c32)cc1 | 30.6 |
| CCn1c(-c2nonc2N)nc2c(C#CCN)ncc(OCCCN)c21 | 1.28 |
| COc1cccc(COc2cc(-n3cnc4ccccc43)sc2C(N)=O)c1 | 2.97 |
| Cc1cc(-c2ccco2)cc(C)c1/C=C/c1cncc(-c2nn[nH]n2)c1 | 4.16 |

Let's switch to this molecule now.
Qu. State the recorded inhibition for this entry: "CCn1c(-c2nonc2N)nc2c(C#CC(C)(C)O)ncc(OC[C@@H]3CCCN3)c21"
Ans. 1.33

---

Listing of recorded inhibition by entry.
# Tested on: Receptor-type tyrosine-protein kinase FLT3 (Homo sapiens), P36888 [D835Y]
# experimental context: at 1 µM

Reference set (8 entries):
| smiles string | tested on | inhibition |
| --- | --- | --- |
| CCn1c(-c2nonc2N)nc2c(C#CC(C)(C)O)ncc(OCC3CCNCC3)c21 | Receptor-type tyrosine-protein kinase FLT3 (Homo sapiens), P36888 [D835Y] | 0.35% |
| Fc1ccc(-c2ncn(C3CCNCC3)c2-c2ccnc(Oc3ccccc3)n2)cc1 | Receptor-type tyrosine-protein kinase FLT3 (Homo sapiens), P36888 [D835Y] | -0.44% |
| CCn1c(-c2nonc2N)nc2c(C#CCN)ncc(OCCCN)c21 | Receptor-type tyrosine-protein kinase FLT3 (Homo sapiens), P36888 [D835Y] | 7.13% |
| COc1cccc(-n2ncc3c(N/N=C/c4ccncc4)ncnc32)c1 | Receptor-type tyrosine-protein kinase FLT3 (Homo sapiens), P36888 [D835Y] | 52.1% |
| COc1cc(C=NNc2ncnc3c2cnn3Cc2ccccc2)ccc1O | Receptor-type tyrosine-protein kinase FLT3 (Homo sapiens), P36888 [D835Y] | 2.91% |
| CCn1c(-c2nonc2N)nc2c(C#CC(C)(C)O)nc(O[C@@H](CN)c3ccccc3)cc21 | Receptor-type tyrosine-protein kinase FLT3 (Homo sapiens), P36888 [D835Y] | 2.22% |
| NC(=O)c1sc(-n2cnc3cc(C(F)(F)F)ccc32)cc1OCc1ccccc1Br | Receptor-type tyrosine-protein kinase FLT3 (Homo sapiens), P36888 [D835Y] | 4.97% |
| CCn1c(-c2nonc2N)nc2c(C#CC(C)(C)O)ncc(OC[C@@H]3CCCN3)c21 | Receptor-type tyrosine-protein kinase FLT3 (Homo sapiens), P36888 [D835Y] | -3.96% |

Qu. Query (compound): "NS(=O)(=O)c1ccc(N/C=C2\C(=O)Nc3ccc4ncsc4c32)cc1" ; field requested: inhibition
Ans. 81.1%
